Data origin: patent US20100152129A1

Tested on: Panc-1 cells
Assay: Protein expression using high content cell imaging system, and efficacy score; as to MMP-1 protein expression: test concentration or dose not given here
Assay type: cell-based
Details: 36 hours post treatment; control 1316
ATTRIBUTE_MEASURED: MMP-1 protein expression (fluorescence units)
Please give a number only; it is taken to be in fluorescence units.

CN1CC[C@H](c2c(O)cc(O)c3c(=O)cc(-c4ccccc4Cl)oc23)[C@H](O)C1 | 316

Form field MMP-1 protein expression, entry "Nc1ccn([C@@H]2O[C@H](CO)[C@@H](O)C2(F)F)c(=O)n1" : 807

// CN1CC[C@@H](c2c(O)cc(O)c3c(=O)cc(-c4ccc(C(F)(F)F)cc4Cl)oc23)[C@@H]1CO.Cl (relative stereo) [P1446A] : MMP-1 protein expression value = 1195

Form: compound = "CC[C@H](CO)Nc1nc(NCc2ccccc2)c2ncn(C(C)C)c2n1" ; MMP-1 protein expression = 1024

The recorded MMP-1 protein expression for CN1CC[C@@H](c2c(O)cc(O)c3c(=O)cc(-c4ccccc4Cl)oc23)[C@@H]1CO.Cl (relative stereo) is 355

---

Test system: Panc-1 cell line
Test: Gene expression profile using RTQ-PCR
Type: cell-based
Details: Panc1, RTQ-PCR
Listing of entries alongside the reported REV3L gene expression vs control cells with no drug treatment.
The reply should contain only the number, in log 2 fold ratio.

CC[C@H](CO)Nc1nc(NCc2ccccc2)c2ncn(C(C)C)c2n1 [drawing 2] | −0.27
CN1CCC(c2c(O)cc(O)c3c(=O)cc(-c4ccccc4Cl)oc23)C(O)C1 (stereo not shown) [drawing 5] | −1.42
Nc1ccn([C@@H]2O[C@H](CO)[C@@H](O)C2(F)F)c(=O)n1 [drawing 1] | −0.28

Proceeding to the next compound to report its REV3L gene expression vs control cells with no drug treatment.
Just so you know, measured REV3L gene expression vs control cells with no drug treatment for CN1CC[C@@H](c2c(O)cc(O)c3c(=O)cc(-c4ccc(C(F)(F)F)cc4Cl)oc23)[C@@H]1CO.Cl [drawing 3] came out at −0.13

---

Tested on: Panc-1 cell line
Assay: Gene expression profile using RTQ-PCR
Type: cell-based
Conditions: Panc1, RTQ-PCR
Catalogue of CDK6 gene expression vs control cells with no drug treatment values
Provide the reading as a plain figure in log 2 fold ratio.

Recorded results for 3 compounds are shown here.
CC[C@H](CO)Nc1nc(NCc2ccccc2)c2ncn(C(C)C)c2n1 [drawing 11] | 0.75
CN1CC[C@@H](c2c(O)cc(O)c3c(=O)cc(-c4ccccc4Cl)oc23)[C@@H]1CO.Cl | −0.23
CN1CC[C@@H](c2c(O)cc(O)c3c(=O)cc(-c4ccc(C(F)(F)F)cc4Cl)oc23)[C@@H]1CO.Cl [drawing 12] | 1.48

Panc-1 cell line CDK6 gene expression vs control cells with no drug treatment of CN1CCC(c2c(O)cc(O)c3c(=O)cc(-c4ccccc4Cl)oc23)C(O)C1 (centres unmarked) [drawing 14] is 1.31

Entry Nc1ccn([C@@H]2O[C@H](CO)[C@@H](O)C2(F)F)c(=O)n1 [drawing 10] under Panc-1 cell line had CDK6 gene expression vs control cells with no drug treatment of −0.53

---

System: Panc-1 cells
Test: Protein expression using high content cell imaging system, and efficacy score
Format: cell-based
Conditions: 36 hours post treatment; control 1093
rule met means recorded VEGF protein expression is 800 fluorescence units or above; rule not met means it is below 800 fluorescence units.

Check out these entries, answers already filled in.
CN1CC[C@H](c2c(O)cc(O)c3c(=O)cc(-c4ccccc4Cl)oc23)[C@H](O)C1 | rule not met
CN1CC[C@@H](c2c(O)cc(O)c3c(=O)cc(-c4ccccc4Cl)oc23)[C@@H]1CO.Cl (relative stereo) | rule not met
CN1CC[C@@H](c2c(O)cc(O)c3c(=O)cc(-c4ccc(C(F)(F)F)cc4Cl)oc23)[C@@H]1CO.Cl (relative stereo) [P1446A] | rule met

Attention now shifts to the item below.
API: above_or_equal(metric=VEGF protein expression, cutoff=800 fluorescence units) for item "CC[C@H](CO)Nc1nc(NCc2ccccc2)c2ncn(C(C)C)c2n1" rule met
